assay: yeast display, Sf9 membrane polyspecificity reagent, FACS + sequencing; frameworks hold sequencing errors
recorded-endpoint: polyreactivity (PSR sort gate)

The examples below pair each entry with its known result.
sequence-text	result
QVQLVESGGGLVQAGGSLRLSCAASGRTFNYNAMGCYRQAPGKERELVAAITSGGRTNYADSVKGRFTISRDNAKNTVYLQMNSLKPEDTAVYYCATEYYRYRWVGAFRYPVYYWGQGTQVTVSS	low polyreactivity
QVQLVESGGGLVQAGGSLRLSCAASGGIFRYAMGWYRQAPGKEREFVAAITTRGGSTYYADSVKARFTISRDNAKNTVYLQMNSLKPEDTAVYYCAARRYSGRNKYDYWGQGTQLTVSS	high polyreactivity
QVQLVESGGGLVQAGGSHRLSCAASGSTYTYNAMGWYRQAPGKERELVAAISSSGGTTYYADSVKGRFTISRDNAKNTVYLQMTSLKPEDTAVYYCAKRWLYTSAFRIMDYWGQGTQVTVSS	high polyreactivity
QVQLVESAGGLVQAGGSLRLSCAASGSIFYYYAMGWYRQAPGKERELVATISSSSGSTYYADSVKGRFTISRDNAKYTVYLQMNRLKPEDTAVYYCATVSGSVWQRWVYANYDFWGQGTQVTVSS	low polyreactivity
QVQLVESGGGLVQAGGSLRLSCAASGSIFYVYAMGWYRQAPGKERELVATIDWSGGSTYYADSVKGRFTISRDNAKNTVYLQMNSLKPEDTAVYYCAAPTEQDPFAPVAFYRYDYWGQGTQVTLSS	low polyreactivity
QVQLVESGGGLVQAGGSLRLSCAASGRIFGLYAMGWYRQAPGKERELVAAIRSSGGSTYYADSVKGRFTISRDNAQNTVYLQMISQKPDDTAVYYCAADGDEDGEYWGQGTQVTVSS	low polyreactivity

Fill in the blank: the reported polyreactivity (PSR sort gate) of QVQLVESGGGLVQAGGSLRLSCAASLRIFYSNAMGWSRQAPGKERELVAAISSSGGITYYADSVKGRFTISRDNAKNTVYLQMNSLKPEDTAVYYCAVDSRHYIRAFDHWGQGTQVTVSS is ____.
low polyreactivity

Query: polyreactivity (PSR sort gate); subject: QVQLVESVGGLVQAGGSLRLSCAASGSIFYPYAMGWYRQAPGKERELVAAIRNGRSTYYADSVKGRFTISRDNAKNTVYLKMNSLKPEDTAVYYCAASVRRRHPFEYWGQGTQVTVSS
high polyreactivity

I would be grateful if you could share the reported polyreactivity (PSR sort gate) for QVQLVESGGGLVQAGGSLRLSCAASGLTFSYYAMGWYRQAPGKERELVAAISWSGGITYYADSVKGRFTISRDNAKNTVYLQMNSLKPEDTAVYYCAADGYPTLYDYWGQGTQVTVSS .
high polyreactivity

Any idea what its polyreactivity (PSR sort gate) is? The sequence is QVQLVESGGGLVQAGGSLRLSCAASGRIFGYYAMGWYRQAPGKQRELVAAISWSGGRTYYADSVKGRFTISRDNAKNTVYLQMNSLKPEDTAVYYCNKVYRVPITEEYDYWGQGTQVTVSS
high polyreactivity

# lookup: polyreactivity (PSR sort gate) of QVQLVESGGGLVQAGGSLRLSCAASGRIFYLNVMGWYRQAPGKERELVAAITRRDVTTYADSVKGRFTISRDNAKNTVYLQMNSLKPEDTAVYYCNAVYYNWIGFDYWGQGTQVSVSS
low polyreactivity

Values were extracted from the nanobody polyreactivity screen of Harvey et al. (2022).
